Here, each record is paired with measured pKd data.
B1: scFv; the commonest letter at each place (parent)
chain 1: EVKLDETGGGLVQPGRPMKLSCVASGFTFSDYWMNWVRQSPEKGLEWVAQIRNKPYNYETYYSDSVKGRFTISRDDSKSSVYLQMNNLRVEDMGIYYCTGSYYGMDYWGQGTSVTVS
chain 2: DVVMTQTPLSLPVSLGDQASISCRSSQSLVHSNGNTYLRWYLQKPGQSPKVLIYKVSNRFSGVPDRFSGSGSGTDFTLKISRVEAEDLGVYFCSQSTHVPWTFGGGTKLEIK

- Variants of: B1
- Test: Kd (Tite-Seq)
- Details: with fluorescein; format: scFv 4-4-20, heavy + light
pKd: −log10 of the molar value.

Known results for variants:
{"Variant descriptor": "chain 1 N35P", "Measured property": "pKd", "Reported": "≤ 5.00"}
{"Variant descriptor": "chain 1 W33M W36P", "Measured property": "pKd", "Reported": "≤ 5.00"}

We next turn to a different variant, shown below.
Req: Dear colleague, I am looking for the recorded pKd of the following variant: chain 1 Y103V Y107V
Resp: ≤ 5.00
